Origin of values: paper PMC10786891

In this section, each of the binders is paired with its reported pKd.
# testSystem: T1, EsCas13d, nuclease-dead (Eubacterium siraeum, UniProt B0MS50, R295A;H300A;R849A;H854A)
# T1 sequence: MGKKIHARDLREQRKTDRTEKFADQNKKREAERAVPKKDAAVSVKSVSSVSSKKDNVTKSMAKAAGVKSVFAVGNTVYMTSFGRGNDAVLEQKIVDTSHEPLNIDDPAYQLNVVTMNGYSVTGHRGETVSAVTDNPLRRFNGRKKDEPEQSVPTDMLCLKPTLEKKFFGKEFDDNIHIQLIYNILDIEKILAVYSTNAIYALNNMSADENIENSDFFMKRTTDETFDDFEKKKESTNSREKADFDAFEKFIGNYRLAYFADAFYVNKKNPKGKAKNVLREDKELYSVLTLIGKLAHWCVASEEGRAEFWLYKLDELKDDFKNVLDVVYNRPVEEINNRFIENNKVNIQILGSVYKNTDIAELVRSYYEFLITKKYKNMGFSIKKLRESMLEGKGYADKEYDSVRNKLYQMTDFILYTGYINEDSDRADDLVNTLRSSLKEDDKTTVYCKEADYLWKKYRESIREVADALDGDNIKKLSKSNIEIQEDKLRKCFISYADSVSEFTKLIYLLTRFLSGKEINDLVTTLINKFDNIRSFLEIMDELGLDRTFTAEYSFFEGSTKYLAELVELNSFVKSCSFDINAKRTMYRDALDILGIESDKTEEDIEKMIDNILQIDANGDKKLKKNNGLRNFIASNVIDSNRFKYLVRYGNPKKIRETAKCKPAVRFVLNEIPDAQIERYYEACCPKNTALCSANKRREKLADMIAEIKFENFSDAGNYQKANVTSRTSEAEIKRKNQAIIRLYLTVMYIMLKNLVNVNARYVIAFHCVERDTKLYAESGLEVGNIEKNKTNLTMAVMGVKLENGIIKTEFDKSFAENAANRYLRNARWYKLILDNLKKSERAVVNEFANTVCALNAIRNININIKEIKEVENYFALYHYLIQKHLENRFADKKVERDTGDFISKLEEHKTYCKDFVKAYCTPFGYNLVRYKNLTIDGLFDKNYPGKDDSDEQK
# assayProcedure: crRNA (strand 1, pre-loaded); Mg2+; 40 mM Tris-HCl pH 7.5, 150 mM NaCl, 6 mM MgCl2, 1 mM DTT, 0.1% Tween-20, 0.2 mg/ml BSA; 25 C; 10 min per concentration, then washed
# conditionLabel: tags: His6-TwinStrep-SUMO cleaved; N-terminal SNAP kept (SNAP-Surface 488); label: 3' end held by stalled T7 RNA polymerase
pKd: −log10 of the molar value.

{"binder": "target 1 insG 3' of 19,insA 3' of 7 (mixed) RNA 1: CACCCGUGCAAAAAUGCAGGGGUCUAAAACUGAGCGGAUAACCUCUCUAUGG RNA 2: GGGAAUGGAUCCACAUCUACGAAUUCGUACCAUGAGAGAGGUUAUCACGCUCACCGAGAUCGGAAGAGCACACGU", "pKd": 7.44}
{"binder": "target 1 insG 3' of 18,insU 3' of 17 (mixed) RNA 1: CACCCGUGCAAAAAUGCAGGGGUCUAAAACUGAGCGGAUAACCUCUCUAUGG RNA 2: GGGAAUGGAUCCACAUCUACGAAUUCGUACCAUAGGUAGAGGUUAUCCGCUCACCGAGAUCGGAAGAGCACACGU", "pKd": 7.52}
